Conditions: male, goldfish (Carassius auratus), in vivo
assayMetric: plasma concentration, goldfish, this study (mean)

| compound | reportedResult |
| --- | --- |
| CN(C)CCCC1(c2ccc(F)cc2)OCc2cc(C#N)ccc21 (stereo not shown) [Citalopram] | 0.10 ng/g wet weight or ng/mL for plasma |
| Cc1cc(C)nc(NS(=O)(=O)c2ccc(N)cc2)n1 [Sulfamethazine] | 0.11 ng/g wet weight or ng/mL for plasma |
| CC1CCc2cc(F)cc3c(=O)c(C(=O)O)cn1c23 (stereo not shown) [Flumequine] | 0.57 ng/g wet weight or ng/mL for plasma |

Query compound follows.
INPUT: // fetch plasma concentration, goldfish, this study (mean) given entry C[C@H](O)C(=O)Nc1c(I)c(C(=O)NC(CO)CO)c(I)c(C(=O)NC(CO)CO)c1I [Iopamidol]
OUTPUT: 8.12 ng/g wet weight or ng/mL for plasma

---

Settings: Cootes carp 01, 2011, male, wet weight
Protocol: Plasma from 9 individual male fish (500 µL/individual) was pooled to yield 3 samples for PPCP analysis. […] Plasma from 6 individual carp (2.3–3.5 g) from each location was selected for PPCP analysis. […] Quality assurance steps included analysis of lab blanks for water and plasma along with matrix recovery spikes. […] Where analytes were detected in two or more samples of the same species or series of water samples, non-detect values were converted to ½ the DL value for reporting purposes.
Examples of compounds with documented plasma concentration, CPM-C 01 follow.

Recorded results for 3 compounds are shown here.
| compound | reportedResult |
| --- | --- |
| CC(C(=O)O)c1ccc(CC(C)(C)O)cc1 (stereo not shown) [2-Hydroxy-ibuprofen] | < 16.9 ng/g |
| CCN(CC)C(=O)c1cccc(C)c1 [DEET, N,N-Diethyl-m-toluamide] | 0.194 ng/g |
| COc1ccc(C(CN(C)C)C2(O)CCCCC2)cc1 (stereo not shown) [Venlafaxine] | 0.042 ng/g |

Proceeding to the next compound to report its plasma concentration, CPM-C 01.
INPUT: Give the value of plasma concentration, CPM-C 01 reported for the following: CC(C)Cc1ccc(C(C)C(=O)O)cc1 (stereo not shown) [Ibuprofen]
OUTPUT: < 3.16 ng/g

---

Conditions: male, goldfish (Carassius auratus), in vivo
assayMetric: plasma concentration, CPM wild-03 (ng/g)
Expressed in ng/g, but write only the number.

INPUT: Give me measured plasma concentration, CPM wild-03, please, for this compound: Cc1cc(C)nc(NS(=O)(=O)c2ccc(N)cc2)n1 [Sulfamethazine]
OUTPUT: 0.066

INPUT: Read the entry C[C@H](O)C(=O)Nc1c(I)c(C(=O)NC(CO)CO)c(I)c(C(=O)NC(CO)CO)c1I [Iopamidol] and write its reported plasma concentration, CPM wild-03.
OUTPUT: 8.35

INPUT: Determine its reported plasma concentration, CPM wild-03: CN(C)CCCC1(c2ccc(F)cc2)OCc2cc(C#N)ccc21 (centres unmarked) [Citalopram]
OUTPUT: 0.13

INPUT: Output measured plasma concentration, CPM wild-03 for this item: CC1CCc2cc(F)cc3c(=O)c(C(=O)O)cn1c23 (centres unmarked) [Flumequine]
OUTPUT: 0.157

INPUT: Hello, please tell me recorded plasma concentration, CPM wild-03 for this one: C[C@]12CCC(=O)C=C1CC[C@@H]1[C@@H]2[C@@H](O)C[C@@]2(C)[C@H]1CC[C@]2(O)C(=O)CO [Hydrocortisone]
OUTPUT: 118
